Items are presented alongside their recorded IC50.
Molecular target: T1, human CD47 (hCD47) expressed on cells (human, UniProt Q08722 19-323)
T1 construct: Transfected CHO cells or endogenous CD47 of human cells; also called CHO-hCD47; CD47 on Raji cells
Assay: flow cytometry, Raji cells, competition with hSIRPα
Dear colleague, please return just the value in µg/mL, with no unit written.

Example entries begin here.
INSERT INTO assay_data (binder, quantity_measured, units_of_measure, result) VALUES
  ('h20-VH3-VL5 (candidate 20.15) (antibody, human IgG4 S228P, kappa, V domains shown, hIgG4-S228P/kappa; also called h20-H3-L5) VH: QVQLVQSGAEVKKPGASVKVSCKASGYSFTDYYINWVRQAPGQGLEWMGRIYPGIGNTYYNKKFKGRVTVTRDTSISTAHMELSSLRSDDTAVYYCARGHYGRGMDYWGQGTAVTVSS VL: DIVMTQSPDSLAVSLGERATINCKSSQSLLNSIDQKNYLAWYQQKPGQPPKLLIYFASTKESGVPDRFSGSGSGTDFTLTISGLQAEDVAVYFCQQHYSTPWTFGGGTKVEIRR', 'IC50', 'µg/mL', 0.113),
  ('h20-VH1-VL5 (candidate 20.5) (antibody, human IgG4 S228P, kappa, V domains shown, hIgG4-S228P/kappa; also called h20-H1-L5) VH: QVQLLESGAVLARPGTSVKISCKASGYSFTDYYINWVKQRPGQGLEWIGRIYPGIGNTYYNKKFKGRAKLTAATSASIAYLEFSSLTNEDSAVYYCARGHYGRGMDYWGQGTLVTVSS VL: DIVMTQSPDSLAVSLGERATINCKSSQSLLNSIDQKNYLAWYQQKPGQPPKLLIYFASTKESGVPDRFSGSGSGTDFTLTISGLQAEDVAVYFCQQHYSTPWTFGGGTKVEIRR', 'IC50', 'µg/mL', 0.111),
  ('h20-VH4-VL4 (candidate 20.19) (antibody, human IgG4 S228P, kappa, V domains shown, hIgG4-S228P/kappa; also called h20-H4-L4) VH: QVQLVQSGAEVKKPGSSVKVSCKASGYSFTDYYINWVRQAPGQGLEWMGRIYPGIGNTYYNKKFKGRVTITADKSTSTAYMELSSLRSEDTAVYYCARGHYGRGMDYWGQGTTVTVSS VL: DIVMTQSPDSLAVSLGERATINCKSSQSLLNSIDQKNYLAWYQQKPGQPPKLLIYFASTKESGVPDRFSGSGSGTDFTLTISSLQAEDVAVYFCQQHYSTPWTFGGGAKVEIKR', 'IC50', 'µg/mL', 0.192),
  ('h20-VH2-VL4 (candidate 20.9) (antibody, human IgG4 S228P, kappa, V domains shown, hIgG4-S228P/kappa; also called h20-H2-L4) VH: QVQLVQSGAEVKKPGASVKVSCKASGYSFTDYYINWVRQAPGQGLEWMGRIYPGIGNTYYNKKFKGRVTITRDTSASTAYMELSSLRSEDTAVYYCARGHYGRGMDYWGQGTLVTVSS VL: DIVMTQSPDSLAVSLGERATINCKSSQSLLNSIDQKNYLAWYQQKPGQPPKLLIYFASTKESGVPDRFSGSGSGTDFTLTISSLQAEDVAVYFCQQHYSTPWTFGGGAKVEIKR', 'IC50', 'µg/mL', 0.123);

Query string: In one line, give reported IC50 of the entry h20-VH3-VL4 (candidate 20.14) (antibody, human IgG4 S228P, kappa, V domains shown, hIgG4-S228P/kappa; also called h20-H3-L4) VH: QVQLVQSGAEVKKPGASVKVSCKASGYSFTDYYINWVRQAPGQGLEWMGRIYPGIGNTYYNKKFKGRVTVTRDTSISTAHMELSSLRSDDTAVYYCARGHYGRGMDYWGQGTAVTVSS VL: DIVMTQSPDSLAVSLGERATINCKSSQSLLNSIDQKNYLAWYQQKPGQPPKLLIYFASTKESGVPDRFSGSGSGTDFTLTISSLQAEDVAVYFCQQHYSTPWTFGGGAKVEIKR .
Result string: 0.135
